Test system: SNU-C4 xenografted nude mice
Test: Biodistribution study in SNU-C4 xenografted nude mice after intravenous injection
Type: in vivo, mouse
Details: liver, 30 min after intravenous injection
For each record, write down the corresponding % ID/g Liver.
Numbers only, in % ID/g.

Here are 3 compounds together with their reported answers.
compound	reported
O=C([O-])CN1CCN(CC(=O)[O-])CCN(CC(=O)O)CCN(CC(=O)[O-])CC1.[68Ga+3] [^68Ga-DOTA, reference compound]	0.60
NC(CNC(=O)CN1CCN(CC(=O)[O-])CCN(CC(=O)[O-])CC1)C(=O)[O-].[68Ga+3] (stereo not shown) [^68Ga-NOTA-ala]	1.34
N[C@@H](CN1CCN(CC(=O)[O-])CCN(CC(=O)[O-])CCN(CC(=O)[O-])CC1)C(=O)O.[68Ga+3] (stereo in doubt) [^68Ga-DO3A-ala]	2.30

So the reported % ID/g Liver for NC(CNC(=O)CN1CCN(CC(=O)[O-])CCN(CC(=O)[O-])CCN(CC(=O)[O-])CC1)C(=O)O.[68Ga+3] (stereo not shown) [^68Ga-DOTA-ala] , on SNU-C4 xenografted nude mice, turned out to be 0.80

----------
System: SNU-C4 xenografted nude mice
Assay: Biodistribution study in SNU-C4 xenografted nude mice after intravenous injection
Format: in vivo, mouse
Settings: SNU-C4 tumor, 30 min after intravenous injection
value.type: % ID/g Tumor (% ID/g)
One number for each entry, in % ID/g.

compound	reported
O=C([O-])CN1CCN(CC(=O)[O-])CCN(CC(=O)O)CCN(CC(=O)[O-])CC1.[68Ga+3] [^68Ga-DOTA, reference compound]	1.26
O=C([O-])CN1CCNCCN(CC(=O)[O-])CCN(CC(=O)[O-])CC1.[68Ga+3] [^68Ga-DO3A, reference compound]	1.83
NC(CN1CCN(CC(=O)[O-])CCNCCN(CC(=O)[O-])CC1)C(=O)[O-].[68Ga+3] (centres unmarked) [^68Ga-DO2A-ala]	2.30
N[C@@H](CN1CCN(CC(=O)[O-])CCN(CC(=O)[O-])CCN(CC(=O)[O-])CC1)C(=O)O.[68Ga+3] (stereo in doubt) [^68Ga-DO3A-ala]	2.49
NC(CNC(=O)CN1CCN(CC(=O)[O-])CCN(CC(=O)[O-])CCN(CC(=O)[O-])CC1)C(=O)O.[68Ga+3] (centres unmarked) [^68Ga-DOTA-ala]	2.23
O=C([O-])CN1CCN(CC(=O)[O-])CCN(CC(=O)[O-])CC1.[68Ga+3] [^68Ga-NOTA, reference compound]	1.28
NC(CNC(=O)CN1CCN(CC(=O)[O-])CCN(CC(=O)[O-])CC1)C(=O)[O-].[68Ga+3] (centres unmarked) [^68Ga-NOTA-ala]	1.40

Turning now to a further compound:
The recorded % ID/g Tumor for O=C([O-])CN1CCNCCN(CC(=O)[O-])CCNCC1.[68Ga+3] [^68Ga-DO2A, reference compound] is 2.10

----------
System: SNU-C4 xenografted nude mice
Assay: Biodistribution study in SNU-C4 xenografted nude mice after intravenous injection
Assay type: in vivo, mouse
Conditions: heart, 30 min after intravenous injection
Please use fulfilled whenever % ID/g Heart is not below 0.7 % ID/g, and not fulfilled whenever it is.

compound	qualitative.label
O=C([O-])CN1CCN(CC(=O)[O-])CCN(CC(=O)[O-])CC1.[68Ga+3] [^68Ga-NOTA, reference compound]	not fulfilled
NC(CNC(=O)CN1CCN(CC(=O)[O-])CCN(CC(=O)[O-])CCN(CC(=O)[O-])CC1)C(=O)O.[68Ga+3] (centres unmarked) [^68Ga-DOTA-ala]	fulfilled
NC(CN1CCN(CC(=O)[O-])CCNCCN(CC(=O)[O-])CC1)C(=O)[O-].[68Ga+3] (centres unmarked) [^68Ga-DO2A-ala]	fulfilled
O=C([O-])CN1CCNCCN(CC(=O)[O-])CCN(CC(=O)[O-])CC1.[68Ga+3] [^68Ga-DO3A, reference compound]	fulfilled
N[C@@H](CN1CCN(CC(=O)[O-])CCN(CC(=O)[O-])CCN(CC(=O)[O-])CC1)C(=O)O.[68Ga+3] (stereo in doubt) [^68Ga-DO3A-ala]	fulfilled

Query block: Would you say O=C([O-])CN1CCNCCN(CC(=O)[O-])CCNCC1.[68Ga+3] [^68Ga-DO2A, reference compound] shows % ID/g Heart at minimum 0.7 % ID/g?
Result block: fulfilled

Just for reference, patent US20120029177A1 is where these values come from.
